System: human CB1 (Homo sapiens, UniProt P21554)
Sequence (P21554 whole entry): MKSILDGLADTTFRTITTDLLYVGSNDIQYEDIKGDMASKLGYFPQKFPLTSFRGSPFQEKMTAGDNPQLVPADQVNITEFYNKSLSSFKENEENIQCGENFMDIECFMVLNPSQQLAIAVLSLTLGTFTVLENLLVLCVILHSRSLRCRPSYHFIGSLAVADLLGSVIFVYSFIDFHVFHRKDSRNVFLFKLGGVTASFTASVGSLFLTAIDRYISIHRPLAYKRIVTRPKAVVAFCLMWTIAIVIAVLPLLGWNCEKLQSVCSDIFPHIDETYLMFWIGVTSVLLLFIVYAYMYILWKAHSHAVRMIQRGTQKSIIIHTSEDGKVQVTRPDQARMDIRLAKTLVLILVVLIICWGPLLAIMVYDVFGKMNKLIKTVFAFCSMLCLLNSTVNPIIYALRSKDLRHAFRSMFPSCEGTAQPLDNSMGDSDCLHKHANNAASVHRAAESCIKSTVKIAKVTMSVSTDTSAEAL
Assay overview: hCB1 calcium mobilization assay
Assay metric: pIC50
// scale note: pIC50 = -log10(conc_M); give the bare number

## Input Give recorded pIC50 with human CB1 (Homo sapiens, UniProt P21554) for the following molecule: Cc1ccc(CCNC(=O)Nc2ccc(Cl)cc2)o1
## Output 6.60

## Input Repeat with O=C(NCCc1ccsc1)Nc1ccc(Cl)cc1
## Output 5.80

More entries:
## Input Find the measured pIC50: item O=C(NCCc1cccs1)Nc1ccc(Cl)cc1 , target or system human CB1 (Homo sapiens, UniProt P21554).
## Output 6.10

----------
# pIC50 annotations
System: UniProt:P21554
Assay overview: [35S]GTPγS binding assay, hCB1 HEK293 membranes
Assay type: biochemical
Schema: pIC50 number; meaning minus log10 of the concentration expressed in molar units.

Please review the following examples before continuing.
## Input Report pIC50 for Cc1ccc(CCNC(=O)Nc2ccc(Cl)cc2)o1 please.
## Output 4.90

## Input Moving on to the next compound: O=C(NCCc1cccs1)Nc1ccc(Cl)cc1
## Output 5.10

Let us move to another entry and its pIC50.
## Input // query pIC50 value for entry O=C(NCCc1ccsc1)Nc1ccc(Cl)cc1
## Output 5.10
